target: human FXR (Homo sapiens, UniProt Q96RI1); experiment: FXR luciferase reporter gene assay (FXRE-luc) in HepG2 cells, antagonistic mode; format: cell-based; details: HepG2; tested compound 10 µM, GW4064 1 µM; read-out: relative response (%) to the model FXR ligand activation (set to be 100%), GW4064 1 µM
Sequence (Q96RI1 whole entry): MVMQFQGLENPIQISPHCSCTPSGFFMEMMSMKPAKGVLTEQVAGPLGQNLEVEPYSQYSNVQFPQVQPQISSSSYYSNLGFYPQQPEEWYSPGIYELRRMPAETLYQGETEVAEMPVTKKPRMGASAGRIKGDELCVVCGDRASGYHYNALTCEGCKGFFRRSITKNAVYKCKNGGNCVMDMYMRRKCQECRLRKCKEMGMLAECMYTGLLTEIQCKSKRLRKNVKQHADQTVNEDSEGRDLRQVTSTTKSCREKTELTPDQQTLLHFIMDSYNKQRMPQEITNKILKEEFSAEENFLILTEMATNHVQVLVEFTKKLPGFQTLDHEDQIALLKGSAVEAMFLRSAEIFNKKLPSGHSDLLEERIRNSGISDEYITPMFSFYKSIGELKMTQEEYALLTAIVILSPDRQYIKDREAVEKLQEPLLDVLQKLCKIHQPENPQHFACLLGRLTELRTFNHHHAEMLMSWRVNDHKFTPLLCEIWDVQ
Sequence (P19793 whole entry partner): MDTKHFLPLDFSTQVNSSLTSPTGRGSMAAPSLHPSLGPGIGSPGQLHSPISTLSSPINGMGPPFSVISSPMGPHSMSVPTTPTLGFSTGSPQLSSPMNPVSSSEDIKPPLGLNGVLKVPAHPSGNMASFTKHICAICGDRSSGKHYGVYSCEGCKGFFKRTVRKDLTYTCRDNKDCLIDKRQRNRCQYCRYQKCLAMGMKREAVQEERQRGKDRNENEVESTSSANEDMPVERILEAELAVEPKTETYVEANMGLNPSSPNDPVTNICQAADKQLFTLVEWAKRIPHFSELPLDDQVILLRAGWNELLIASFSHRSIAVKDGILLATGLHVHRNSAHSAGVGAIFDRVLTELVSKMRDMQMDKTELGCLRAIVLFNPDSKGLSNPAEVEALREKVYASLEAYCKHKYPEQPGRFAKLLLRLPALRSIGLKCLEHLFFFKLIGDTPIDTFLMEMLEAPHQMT
remaining activity at 10 µM overview
Answer with the value and then the unit.

Worked cases, remaining activity at 10 µM given:
{"molecule": "CC[C@@]1(O)C[C@@H]2C[C@H](O)CC[C@]2(C)C2CC[C@@]3(C)C(CC[C@@H]3[C@H](C)CCC(=O)O)C21 (stereo partly drawn)", "readout_value": "89%"}
{"molecule": "C=C[C@@]1(O)C[C@@H]2C[C@H](O)CC[C@]2(C)C2CC[C@@]3(C)C(CC[C@@H]3[C@H](C)CCC(=O)O)C21 (stereo partly drawn)", "readout_value": "93.9%"}

Please turn your attention to the following entry.
Q: I am curious: what remaining activity at 10 µM value has been reported for CC(CCC(=O)O)C1CCC2C3C(CCC12C)C1(C)CCC(O)CC1CC3(O)C(C)C (stereo not drawn) ?
A: 91.4%

* * *

assay: MTS viability assay; format: cell-based, human; settings: human, HepG2 cells; HepG2, 24 h, vehicle = 100%
measurement_type: viability at 24 h, 10 µM (%)
A number alone suffices; assume %.

{"molecule": "CC[C@@]1(O)C[C@@H]2C[C@H](O)CC[C@]2(C)C2CC[C@@]3(C)C(CC[C@@H]3[C@H](C)CCC(=O)O)C21 (some centres unmarked) [2c]", "units_text": "%", "readout_value": 100}
{"molecule": "C#C[C@@]1(O)C[C@@H]2C[C@H](O)CC[C@]2(C)C2CC[C@@]3(C)C(CC[C@@H]3[C@H](C)CCC(=O)O)C21 (some centres unmarked) [2e]", "units_text": "%", "readout_value": 96.5}
{"molecule": "C[C@H](CCC(=O)O)[C@H]1CCC2C3C(CC[C@@]21C)[C@@]1(C)CC[C@@H](O)C[C@H]1C[C@@]3(C)O (some centres unmarked) [2b]", "units_text": "%", "readout_value": 99.7}
{"molecule": "C=CCCC[C@@]1(O)C[C@@H]2C[C@H](O)CC[C@]2(C)C2CC[C@@]3(C)C(CC[C@@H]3[C@H](C)CCC(=O)O)C21 (some centres unmarked) [2j]", "units_text": "%", "readout_value": 87.8}
{"molecule": "C/C=C1\\C[C@@H]2C[C@H](O)CC[C@]2(C)[C@H]2CC[C@]3(C)[C@@H]([C@H](C)CCC(=O)O)CC[C@H]3[C@H]12 [2a]", "units_text": "%", "readout_value": 99.7}

Q: I am curious: what viability at 24 h, 10 µM value has been reported for CCCCCCCCC[C@@]1(O)C[C@@H]2C[C@H](O)CC[C@]2(C)C2CC[C@@]3(C)C(CC[C@@H]3[C@H](C)CCC(=O)O)C21 (some centres unmarked) [2k] ?
A: 79.8

Q: I am curious: what viability at 24 h, 10 µM value has been reported for CCC[C@@]1(O)C[C@@H]2C[C@H](O)CC[C@]2(C)C2CC[C@@]3(C)C(CC[C@@H]3[C@H](C)CCC(=O)O)C21 (some centres unmarked) [2f] ?
A: 94.9

Q: I am curious: what viability at 24 h, 10 µM value has been reported for CC(CCC(=O)O)C1CCC2C3C(CCC12C)C1(C)CCC(O)CC1CC3(O)C(C)C (centres unmarked) [2h] ?
A: 93.4

Q: I am curious: what viability at 24 h, 10 µM value has been reported for C[C@H](CCC(=O)O)[C@H]1CCC2C3C(CC[C@@]21C)[C@@]1(C)CC[C@@H](O)C[C@H]1C[C@]3(O)C1CC1 (some centres unmarked) [2i] ?
A: 90.9

Q: I am curious: what viability at 24 h, 10 µM value has been reported for C=CC[C@@]1(O)C[C@@H]2C[C@H](O)CC[C@]2(C)C2CC[C@@]3(C)C(CC[C@@H]3[C@H](C)CCC(=O)O)C21 (some centres unmarked) [2g] ?
A: 97.7

Q: I am curious: what viability at 24 h, 10 µM value has been reported for C=C[C@@]1(O)C[C@@H]2C[C@H](O)CC[C@]2(C)C2CC[C@@]3(C)C(CC[C@@H]3[C@H](C)CCC(=O)O)C21 (some centres unmarked) [2d] ?
A: 95.9
